- test.system: Kallikrein-3 (Homo sapiens, UniProt P07288)
- Sequence (P07288 25-261, species assumed): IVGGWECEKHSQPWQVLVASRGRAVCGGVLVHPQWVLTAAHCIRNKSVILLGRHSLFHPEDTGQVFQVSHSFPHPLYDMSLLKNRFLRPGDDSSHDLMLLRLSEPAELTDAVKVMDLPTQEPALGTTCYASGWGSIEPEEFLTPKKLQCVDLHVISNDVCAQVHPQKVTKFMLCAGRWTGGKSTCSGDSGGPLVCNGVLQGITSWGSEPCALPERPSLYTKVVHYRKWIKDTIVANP
- assay.remarks: FRET peptide cleavage efficiency with Kallikrein-3
- Assay type: biochemical
- setup.conditions: t = 1 h; peptide 200 uM, Kallikrein-3 2 μg/ml, 37° C., pH 8
Square brackets hold non-standard residues; d marks the D form. Ends that are not written are not given here. Tyr(3-NO2) = N[C@@H](Cc1ccc(O)c([N+](=O)[O-])c1)C(=O)O; 2Abz = Nc1ccccc1C(=O)O
# Kallikrein-3 t = 1 h % cleavage listing for each entry below
measure.name: Kallikrein-3 t = 1 h % cleavage (%)

• SSQYSSPG ([2Abz]SSQYSSPG[Tyr(3-NO2)]-NH2) [LNK069] = 6
• GSSVYSGR ([2Abz]GSSVYSGR[Tyr(3-NO2)]-NH2) [LNK080] = 16
• RSSYRSL ([2Abz]RSSYRSL[Tyr(3-NO2)]-NH2) [LNK075] = 49
• GSSYYSGA ([2Abz]GSSYYSGA[Tyr(3-NO2)]-NH2) [LNK079] = 34
• SGRHSSKLQPLGYFGKL ([2Abz]SGRHSSKLQPLGYFGKL[Tyr(3-NO2)]-NH2) [LNK063] = 7
